target_of_assay: Tyrosine-protein kinase SYK (Homo sapiens) (UniProt P43405)
protocol_conditions: at 1 µM
Description: GSK_PKIS: SYK mean inhibition at 1 uM [Nanosyn]

{"columns": ["input_smiles", "inhibition"],
 "data": [
  ["CNC(=O)c1cncc(/C=C/c2ccccc2Cl)c1", "0.31%"],
  ["CCn1cc(-c2ccnc3[nH]ccc23)c(-c2cccc(NC(=O)Nc3ccc(OCc4ccccc4)cc3)c2)n1", "-2.75%"],
  ["NS(=O)(=O)c1ccc(N/N=C2\\C(=O)Nc3ccc4ncccc4c32)cc1", "22.4%"],
  ["Fc1ccc(-c2nn3ncccc3c2-c2ccnc(Nc3ccc4c(c3)OCCO4)n2)cc1", "-3.1%"],
  ["FC(F)(F)c1cccc(-c2nn3ncccc3c2-c2ccnc(Nc3ccc4c(c3)OCCO4)n2)c1", "-1.91%"],
  ["Fc1ccc(-c2nn3ccccc3c2-c2ccncc2)cc1", "0.32%"],
  ["N#Cc1c(NC(=O)CN2CCOCC2)sc2c1CCCC2", "-1.53%"],
  ["COc1cc2ncn(-c3cc(OCc4ccccc4C(F)(F)F)c(C(=O)N(C)C)s3)c2cc1OC", "1.81%"],
  ["CN1CCC(n2cnc(-c3ccc(F)cc3)c2-c2ccnc(N)n2)CC1", "-1.2%"],
  ["CCOc1ccc2c(-c3ccnc(Nc4cccc(C(F)(F)F)c4)n3)cnn2n1", "-6.38%"]
]}

---

target_of_assay: Serine/threonine-protein kinase MRCK beta (Homo sapiens) (UniProt Q9Y5S2);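 further: values are mean percent inhibition of MRCKB, screened as part of the GSK PKIS kinase inhibitor set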
Sequence (Q9Y5S2 whole entry): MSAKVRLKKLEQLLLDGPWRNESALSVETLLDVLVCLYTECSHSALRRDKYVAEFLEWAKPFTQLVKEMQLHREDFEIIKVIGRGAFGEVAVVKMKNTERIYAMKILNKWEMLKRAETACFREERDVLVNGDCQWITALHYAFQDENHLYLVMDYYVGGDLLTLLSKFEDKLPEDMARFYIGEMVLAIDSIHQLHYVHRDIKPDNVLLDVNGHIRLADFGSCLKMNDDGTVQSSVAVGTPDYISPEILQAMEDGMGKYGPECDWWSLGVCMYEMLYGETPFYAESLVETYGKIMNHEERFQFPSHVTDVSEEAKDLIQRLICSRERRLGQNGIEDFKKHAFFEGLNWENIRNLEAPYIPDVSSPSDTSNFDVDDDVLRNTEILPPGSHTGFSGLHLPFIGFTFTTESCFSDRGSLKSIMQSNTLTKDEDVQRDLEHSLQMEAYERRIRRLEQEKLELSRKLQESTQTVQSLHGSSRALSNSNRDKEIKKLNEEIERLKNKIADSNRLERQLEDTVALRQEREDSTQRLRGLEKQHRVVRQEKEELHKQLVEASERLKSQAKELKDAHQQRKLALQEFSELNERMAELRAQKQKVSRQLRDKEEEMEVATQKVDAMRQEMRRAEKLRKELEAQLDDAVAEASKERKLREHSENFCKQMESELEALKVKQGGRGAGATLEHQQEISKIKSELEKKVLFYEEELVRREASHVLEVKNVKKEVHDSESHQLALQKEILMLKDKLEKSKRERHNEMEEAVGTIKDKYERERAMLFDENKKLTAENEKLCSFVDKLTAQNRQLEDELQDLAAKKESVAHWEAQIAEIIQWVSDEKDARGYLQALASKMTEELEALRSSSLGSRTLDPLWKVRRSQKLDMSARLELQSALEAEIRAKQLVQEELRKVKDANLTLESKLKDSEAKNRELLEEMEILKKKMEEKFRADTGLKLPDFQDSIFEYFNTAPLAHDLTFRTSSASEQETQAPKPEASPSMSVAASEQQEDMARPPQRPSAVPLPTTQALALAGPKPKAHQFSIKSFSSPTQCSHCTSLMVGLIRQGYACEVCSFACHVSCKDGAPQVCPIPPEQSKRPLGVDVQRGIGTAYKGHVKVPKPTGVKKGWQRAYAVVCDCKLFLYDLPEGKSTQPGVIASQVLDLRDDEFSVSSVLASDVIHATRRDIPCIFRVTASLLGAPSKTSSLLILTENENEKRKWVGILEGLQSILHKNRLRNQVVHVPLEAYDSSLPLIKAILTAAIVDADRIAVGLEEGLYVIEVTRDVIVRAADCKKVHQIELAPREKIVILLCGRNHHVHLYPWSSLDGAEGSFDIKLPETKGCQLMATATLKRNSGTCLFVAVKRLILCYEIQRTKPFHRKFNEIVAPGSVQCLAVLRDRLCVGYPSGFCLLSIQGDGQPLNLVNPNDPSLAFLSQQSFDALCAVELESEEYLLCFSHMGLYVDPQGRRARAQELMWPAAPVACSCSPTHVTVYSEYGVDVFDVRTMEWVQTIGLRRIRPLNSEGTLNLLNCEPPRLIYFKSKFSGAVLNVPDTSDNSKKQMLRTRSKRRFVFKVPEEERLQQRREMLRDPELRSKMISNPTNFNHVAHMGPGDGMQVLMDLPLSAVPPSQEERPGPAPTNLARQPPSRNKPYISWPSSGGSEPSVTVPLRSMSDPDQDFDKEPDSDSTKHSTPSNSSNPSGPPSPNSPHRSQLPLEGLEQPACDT
protocol_conditions: at 0.1 µM
Measured inhibition accompanies every entry in the list below.

{"columns": ["input_smiles", "u", "inhibition"],
 "data": [
  ["c1ccc(COc2ccc(Nc3ncnc4ccc(-c5ccco5)cc34)cc2)cc1", "%", 0.9],
  ["CC(C)COC(=O)c1ccc2c(c1)/C(=C/Nc1ccc(S(N)(=O)=O)cc1)C(=O)N2", "%", 3.62],
  ["CS(=O)(=O)CCNCc1coc(-c2ccc3ncnc(Nc4ccc(OCc5ccccc5)cc4)c3c2)c1", "%", 0.72],
  ["NC(=O)c1sc(-n2cnc3ccc(C(F)(F)F)cc32)cc1OCc1ccccc1Br", "%", 0.62],
  ["c1ccc(-c2nc3n(c2-c2ccc4c(c2)OCO4)CCC3)nc1", "%", 1.65],
  ["COc1cc(/C=N/Nc2ncnc3[nH]ncc23)ccc1O", "%", 0.6],
  ["COC(=O)Nc1nc2ccc(Oc3ccc(NC(=O)Nc4cccc(Cl)c4)cc3)cc2[nH]1", "%", -0.72],
  ["Nc1nc(-c2ccc(F)cc2)c(-c2ccc3ncccc3n2)s1", "%", 0.89],
  ["COc1ccc(-c2cc(-c3c[nH]nc3-c3ccccn3)ccn2)cc1", "%", -0.39],
  ["COc1cccc(-n2ncc3c(N/N=C/c4ccc(F)cc4)ncnc32)c1", "%", -0.45],
  ["COc1ccc(-c2nn3ncccc3c2-c2ccnc(Nc3ccc4c(c3)OCCO4)n2)cc1", "%", 0.2],
  ["N#Cc1c(NC(=O)c2ccc(F)cc2)sc2c1CCCC2", "%", -0.27],
  ["Fc1ccc(-c2nn3ncccc3c2-c2ccnc(Nc3ccc4c(c3)OCCO4)n2)cc1", "%", -0.17],
  ["CCOc1ccc2c(-c3ccnc(Nc4cccc(C(F)(F)F)c4)n3)cnn2n1", "%", -0.48],
  ["Nc1nc(-c2cccc(Cl)c2)c(-c2ccc3ncccc3n2)s1", "%", -0.33],
  ["CC(=O)Nc1cccc(C#Cc2cncnc2Nc2ccc(OCc3cccc(F)c3)c(Cl)c2)c1", "%", 1.53],
  ["COc1ccc(CNC(=O)c2ccc(-c3cc(-c4nnc(C)o4)ccc3C)cc2)cc1", "%", 2.16],
  ["CCCN1CCC(c2ccc(Nc3nc(Nc4cc(F)ccc4C(N)=O)c4cc[nH]c4n3)c(OC)c2)CC1", "%", 1.71],
  ["CC(=O)NCc1cccc(C#Cc2cncnc2Nc2ccc(OCc3cccc(F)c3)c(Cl)c2)c1", "%", 0.09],
  ["Clc1ccc(-c2nn3ncccc3c2-c2ccnc(Nc3ccccc3)n2)cc1", "%", 0.76],
  ["COc1ccc(-c2cc3c(N)ncnc3o2)cc1", "%", 1.33]
]}

---

target_of_assay: 5'-AMP-activated protein kinase catalytic subunit alpha-1 (Homo sapiens);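 further: enzyme tested as the AMPK alpha1 beta1 gamma1 complex, values reported as mean percent inhibition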
protocol_conditions: at 0.1 µM
Description: GSK_PKIS: AMPKA1 (A1B1G1) mean inhibition at 0.1 uM [Nanosyn]
Cut-off 3% on inhibition, inclusive. At or above means satisfied; below means not satisfied.

{"columns": ["compound", "answer_label"],
 "data": [
  ["O=C(O[C@H]1CN[C@H](C#Cc2cc3ncnc(Nc4ccc(Cc5ccccc5)cc4)c3s2)C1)N1CCOCC1", "not satisfied"],
  ["N#Cc1c(NC(=O)c2ccc(F)cc2)sc2c1CCCC2", "not satisfied"],
  ["Cc1cccc(Nc2ncc(-c3ccccc3)o2)c1", "satisfied"],
  ["O=S(=O)(CCNCc1ccc(-c2ccc3ncnc(Nc4ccc(OCc5cccc(F)c5)c(Cl)c4)c3c2)o1)c1ccccc1", "satisfied"],
  ["CC1=C(C(=O)Nc2cc(Cl)c3[nH]ncc3c2)C(c2ccc(C(F)(F)F)cc2)CC(=O)N1 (centres undefined)", "satisfied"],
  ["CCN(CC)S(=O)(=O)c1ccc(OC)c(Nc2ncc(-c3ccccc3)o2)c1", "not satisfied"],
  ["CN(C)CCOc1ccc(-c2nc(-c3ccncc3)c(-c3ccc4c(c3)CC/C4=N\\O)[nH]2)cc1", "not satisfied"],
  ["Clc1ccc(-c2nn3ncccc3c2-c2ccnc(Nc3ccccc3)n2)cc1", "not satisfied"],
  ["NS(=O)(=O)c1ccc(N/N=C2\\C(=O)Nc3ccc4ncccc4c32)cc1", "satisfied"]
]}

---

target_of_assay: RAC-alpha serine/threonine-protein kinase (Homo sapiens) (UniProt P31749)
Sequence (P31749 whole entry): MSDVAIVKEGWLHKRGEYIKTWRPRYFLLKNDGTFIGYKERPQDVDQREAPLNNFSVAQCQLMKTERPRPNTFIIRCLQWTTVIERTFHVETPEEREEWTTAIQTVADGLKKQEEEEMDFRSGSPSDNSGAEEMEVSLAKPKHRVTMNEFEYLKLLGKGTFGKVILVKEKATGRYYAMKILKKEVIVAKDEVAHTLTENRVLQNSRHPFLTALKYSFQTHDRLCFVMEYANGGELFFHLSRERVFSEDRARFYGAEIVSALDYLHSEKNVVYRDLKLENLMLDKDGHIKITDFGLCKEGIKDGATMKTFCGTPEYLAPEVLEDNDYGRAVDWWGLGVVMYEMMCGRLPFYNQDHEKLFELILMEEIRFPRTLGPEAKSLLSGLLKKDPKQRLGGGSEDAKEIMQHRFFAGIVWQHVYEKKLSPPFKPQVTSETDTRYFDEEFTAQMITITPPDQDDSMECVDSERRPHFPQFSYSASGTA
protocol_conditions: at 1 µM
Description: GSK_PKIS: AKT1 mean inhibition at 1 uM [Nanosyn]

{"columns": ["input_smiles", "inhibition (%)"],
 "data": [
  ["Cc1cccc(Nc2ncc(-c3ccccc3)o2)c1", 3.09],
  ["COc1ccc(-c2cc(-c3c[nH]nc3-c3ccccn3)ccn2)cc1", 1.5],
  ["COc1cc2ncn(-c3cc(OCc4ccccc4C(F)(F)F)c(C(=O)N(C)C)s3)c2cc1OC", -0.11],
  ["CCn1c(-c2nonc2N)nc2cnc(Oc3cccc(NC(=O)c4ccc(N(C)C)cc4)c3)cc21", 7.63],
  ["COc1cc(/C=N/Nc2ncnc3[nH]ncc23)ccc1O", 0.81],
  ["N#Cc1c(NC(=O)c2ccc(F)cc2)sc2c1CCCC2", 0.69],
  ["CN1CCC(n2cnc(-c3ccc(F)cc3)c2-c2ccnc(Nc3ccccc3)n2)CC1", 1.05],
  ["CC(C)(CO)CNC(=O)c1ccc2c(c1)/C(=N/Nc1ccc(S(N)(=O)=O)cc1)C(=O)N2", -0.56],
  ["Cc1ccc2c(-c3ccnc(Nc4ccccc4)n3)c(-c3ccc(F)cc3)nn2n1", 0.99],
  ["CS(=O)(=O)CCNCc1coc(-c2ccc3ncnc(Nc4ccc(OCc5ccccc5)cc4)c3c2)c1", 0.14],
  ["FC(F)(F)c1cccc(-c2nn3ncccc3c2-c2ccnc(Nc3ccc4c(c3)OCCO4)n2)c1", 1.44],
  ["O=C(Nc1n[nH]c2cc(-c3ccc(F)cc3)ccc12)C1CC1", 1.36],
  ["CC(=O)Nc1cccc(C#Cc2cncnc2Nc2ccc(OCc3cccc(F)c3)c(Cl)c2)c1", 2.86],
  ["CCc1nn2ncccc2c1-c1ccnc(NC2CC2)n1", 0.03],
  ["COC(=O)Nc1nc2ccc(Oc3ccc(NC(=O)Nc4cccc(Cl)c4)cc3)cc2[nH]1", -0.4],
  ["CCOc1ccc2c(-c3ccnc(Nc4cccc(C(F)(F)F)c4)n3)cnn2n1", 0.31],
  ["CCn1c(-c2nonc2N)nc2ccccc21", 2.48],
  ["Fc1ccc(-c2nn3ccccc3c2-c2ccncc2)cc1", 1.28],
  ["Clc1ccc(-c2nn3ncccc3c2-c2ccnc(Nc3ccccc3)n2)cc1", 0.62],
  ["CCN1CCC(CC(=O)Nc2n[nH]c3nnc(-c4cccc(F)c4F)cc23)CC1", 0.44],
  ["Fc1ccc(-c2nn3ncccc3c2-c2ccnc(Nc3ccc4c(c3)OCCO4)n2)cc1", 0.97]
]}

---

target_of_assay: cAMP-dependent protein kinase catalytic subunit PRKX (Homo sapiens);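 further: each value is the mean percent inhibition of the kinase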
Sequence (whole entry): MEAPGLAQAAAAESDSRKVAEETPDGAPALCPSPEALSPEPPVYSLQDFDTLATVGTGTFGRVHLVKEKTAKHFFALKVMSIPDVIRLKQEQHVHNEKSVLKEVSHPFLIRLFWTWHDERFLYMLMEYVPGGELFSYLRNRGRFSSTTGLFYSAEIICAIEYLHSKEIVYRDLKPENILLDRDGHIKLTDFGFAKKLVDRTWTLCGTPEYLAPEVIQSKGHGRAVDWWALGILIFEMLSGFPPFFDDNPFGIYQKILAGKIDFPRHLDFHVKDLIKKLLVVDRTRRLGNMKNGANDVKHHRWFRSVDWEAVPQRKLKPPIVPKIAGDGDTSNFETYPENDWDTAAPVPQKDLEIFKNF
protocol_conditions: at 1 µM
Measured inhibition accompanies every entry in the list below.

{"columns": ["input_smiles", "inhibition [%]"],
 "data": [
  ["c1ccc(-c2nc3n(c2-c2ccc4c(c2)OCO4)CCC3)nc1", 3.61],
  ["CC(=O)NCc1cccc(C#Cc2cncnc2Nc2ccc(OCc3cccc(F)c3)c(Cl)c2)c1", 2.2],
  ["c1cc(-c2cnn3nc(N4CCOCC4)ccc23)nc(NC2CC2)n1", -0.73],
  ["COc1ccc(CNC(=O)c2ccc(-c3cc(-c4nnc(C)o4)ccc3C)cc2)cc1", 6.21],
  ["FC(F)(F)c1cccc(-c2nn3ncccc3c2-c2ccnc(Nc3ccc4c(c3)OCCO4)n2)c1", -1.55],
  ["Fc1ccc(-c2nn3ncccc3c2-c2ccnc(Nc3ccc4c(c3)OCCO4)n2)cc1", 0.09],
  ["COc1ccc(-c2cc3c(N)ncnc3o2)cc1", 0.29],
  ["O=C(O[C@H]1CN[C@H](C#Cc2cc3ncnc(Nc4ccc(Cc5ccccc5)cc4)c3s2)C1)N1CCOCC1", 3.94],
  ["CC(C)COC(=O)c1ccc2c(c1)/C(=C/Nc1ccc(S(N)(=O)=O)cc1)C(=O)N2", 13.5],
  ["CNC(=O)c1cccc(C#Cc2cncnc2Nc2ccc(OCc3cccc(F)c3)c(Cl)c2)c1", 0.9]
]}
